The reported measurements were obtained from the emibetuzumab library of Makowski et al. (2022).

B1: VH:VL chains; a variant is named by its letters at X, in order (parent)
chain 1: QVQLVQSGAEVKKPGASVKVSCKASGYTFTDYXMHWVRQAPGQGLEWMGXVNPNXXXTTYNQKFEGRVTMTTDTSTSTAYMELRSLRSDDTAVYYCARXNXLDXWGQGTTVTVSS
chain 2: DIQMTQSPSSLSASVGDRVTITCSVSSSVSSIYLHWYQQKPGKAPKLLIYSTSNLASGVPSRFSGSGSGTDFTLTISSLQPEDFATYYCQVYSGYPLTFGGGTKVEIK

# Variants of: B1
# protocol_notes: yeast display scFab, FACS + sequencing
observation_type: non-specific binding call

VEAGDDSA | no binding
FRRGDAVA | binds
YRRGSSLY | binds
FRGRDYGA | binds
YTGRGSLD | binds
YRRRGSVV | binds
FRGRGVGD | binds
FRAGGAWS | binds
FRGRGDGD | binds
DRREDALD | no binding
FRGAGSVD | binds
DREEGSWV | no binding
VTGGDDSA | no binding
YRRGSSSA | binds
AEGTNAGD | no binding
YRGAGAAA | binds
YRGRDSAS | no binding
VTGEDAGA | no binding
YRERGSAA | binds
SEARSDLA | no binding
FKRAGSLA | binds
YRARGAAS | binds
YAEKDFGV | no binding
YRTRGALA | binds
FRGRGASV | binds
SEARSDAA | no binding
FKRGSSLF | binds
VRTGGAAA | binds
